- measured target: androgen receptor (AR) (Homo sapiens, UniProt P10275)
- Sequence (P10275 1-920): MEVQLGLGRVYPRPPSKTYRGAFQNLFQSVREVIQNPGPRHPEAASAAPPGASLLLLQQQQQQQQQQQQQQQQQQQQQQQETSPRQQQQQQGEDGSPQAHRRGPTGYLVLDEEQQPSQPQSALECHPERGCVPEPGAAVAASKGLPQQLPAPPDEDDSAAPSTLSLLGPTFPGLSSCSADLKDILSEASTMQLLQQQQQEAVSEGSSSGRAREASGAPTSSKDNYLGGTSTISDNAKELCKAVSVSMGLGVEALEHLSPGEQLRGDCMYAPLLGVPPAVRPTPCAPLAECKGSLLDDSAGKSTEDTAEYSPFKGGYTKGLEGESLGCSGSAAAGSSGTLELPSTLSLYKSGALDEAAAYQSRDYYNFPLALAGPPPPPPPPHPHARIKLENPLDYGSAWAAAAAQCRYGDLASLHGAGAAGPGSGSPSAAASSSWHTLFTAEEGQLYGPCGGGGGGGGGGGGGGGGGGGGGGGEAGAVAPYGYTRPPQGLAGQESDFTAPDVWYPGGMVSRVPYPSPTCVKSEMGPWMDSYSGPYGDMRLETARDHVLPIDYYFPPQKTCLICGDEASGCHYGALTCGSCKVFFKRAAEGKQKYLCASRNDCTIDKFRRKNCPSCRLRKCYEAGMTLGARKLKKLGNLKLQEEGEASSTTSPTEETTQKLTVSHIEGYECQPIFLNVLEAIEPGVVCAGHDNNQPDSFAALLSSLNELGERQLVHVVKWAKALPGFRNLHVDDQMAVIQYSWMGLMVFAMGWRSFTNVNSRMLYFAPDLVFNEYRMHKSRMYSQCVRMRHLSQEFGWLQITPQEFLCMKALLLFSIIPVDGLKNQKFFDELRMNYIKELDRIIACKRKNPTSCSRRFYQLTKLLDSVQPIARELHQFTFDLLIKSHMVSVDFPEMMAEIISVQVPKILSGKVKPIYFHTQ
- assay explanation: Androgen reporter assay
value kind: EC50 (µM)
# output: bare number, implied unit µM

Hello, please tell me recorded EC50 for this one: C[C@]12CC[C@H](O)CC1=CC[C@@H]1[C@@H]2CC[C@]2(C)C(c3cccnc3)=CC[C@@H]12 [abiraterone]
17.1

* * *

- assay explanation: Mouse pharmacokinetics, IV and oral, plasma levels
- Assay type: in vivo, Male Swiss Mice
- experimental setup: male, Swiss, mouse, plasma, iv, 2 mg/kg, AUC0−¥; 2 mg/kg IV; Data set 1
value kind: AUC (ng·h/mL)
# output: bare number, implied unit ng·h/mL

Hello, please tell me recorded AUC for this one: N=C(NCCCOc1ccc(F)cc1)Nc1ccc(Cl)cc1
57

* * *

- assay explanation: Mouse pharmacokinetic exposure, IP, plasma and brain
- experimental setup: male, Swiss, brain, 10 mg/kg
value kind: Cmax
Returns: string containing the number followed by the unit.

Hello, please tell me recorded Cmax for this one: N=C(NCCCOc1ccc(F)cc1)Nc1ccc(Cl)cc1
691 ng/g

* * *

- assay explanation: Mouse pharmacokinetics, IV and oral, plasma levels
- Assay type: in vivo, Male Swiss Mice
- experimental setup: male, Swiss, mouse, plasma, iv, 2 mg/kg, CL, 2 mg/kg IV; Data set 2
value kind: clearance
Returns: string containing the number followed by the unit.

Hello, please tell me recorded clearance for this one: N=C(NCCCOc1ccc(F)cc1)Nc1ccc(Cl)cc1
469 mL/min/kg

* * *

- assay explanation: Mouse pharmacokinetics, IV and oral, plasma levels
- Assay type: in vivo, Male Swiss Mice
- experimental setup: male, Swiss, mouse, plasma, iv, 2 mg/kg, CL, 2 mg/kg IV; Data set 1
value kind: clearance (mL/min/kg)
# output: bare number, implied unit mL/min/kg

Hello, please tell me recorded clearance for this one: N=C(NCCCOc1ccc(F)cc1)Nc1ccc(Cl)cc1
586

* * *

- assay explanation: Mouse pharmacokinetics, IV and oral, plasma levels
- Assay type: in vivo, Male Swiss Mice
- experimental setup: male, Swiss, mouse, plasma, iv, 2 mg/kg, AUC0−¥; 2 mg/kg IV; Data set 2
value kind: AUC (ng·h/mL)
# output: bare number, implied unit ng·h/mL

Hello, please tell me recorded AUC for this one: N=C(NCCCOc1ccc(F)cc1)Nc1ccc(Cl)cc1
71

src = paper PMC5714280
